Target: Muscarinic acetylcholine receptor M4 (Homo sapiens)
Experiment: M4-linked GIRK flux change, two-sided – cell-based, HEK293 M4/GIRK, thallium flux, BTC-AM, M4 allosteric agonist project, primary screen (AID 625);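 note: thallium influx through GIRK channels coupled to M4 in HEK293 cells with BTC-AM dye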
Details: at 10 µM, actives lie on both sides
Given measured fluorescence slope, output true (1) if it is greater than or equal to 0.006 and false (0) if not.

> print(dat)
                                   molecule  classification
1  CCCc1[nH]nc2c1C(c1cccc(OC(=O)c3ccco3)c1)C(C#N)=C(N)O2 (stereo not given)        true (1)
2  O=C1CS/C(=N\C(=O)N2c3ccccc3Sc3ccccc32)N1        true (1)
3  CCCn1c(SCC(=O)Nc2nnc(-c3ccccc3)s2)nnc1-c1ccccn1       false (0)
4       Cc1ccc(-c2ccc(/C=N/n3cnnc3)o2)cc1Cl        true (1)
5        COc1cc(NC(=O)Cc2cccs2)ccc1-n1cnnn1       false (0)
6   COc1cccc(Nc2c(F)c(F)c(F)c(F)c2C(=O)O)c1        true (1)
7  N#Cc1c(SCC(=O)N2CCOCC2)nsc1SCC(=O)N1CCOCC1       false (0)
8  CCn1cc(C(=O)N2CCCC2)c(=O)c2cc(S(=O)(=O)N3CCOCC3)ccc21        true (1)
9  COc1ccc(C(CNC(=O)CN2C(=O)NC3(CC(C)CC(C)(C)C3)C2=O)N2CCOCC2)cc1 (stereo not given)       false (0)

---

Experiment: reduction of polyQ htt aggregates in cells – imaging, exon1htt(103Q)mCFP cells, high-content imaging, primary screen (AID 483);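 note: compound exposure lasted 3 days before fixation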
Conditions: exon1htt(103Q)mCFP cell line, aggregate imaging, at 2 µM; active compounds read high
recorded endpoint: inhibition of aggregation (%)

> print(dat)
                                    compound          recorded.endpoint  reading
 1     O=S(=O)(c1ccccc1)N1CCN(C2CCCCCCC2)CC1  inhibition of aggregation        9
 2  CC(C)(C)n1ncc2c(=O)n(CC(=O)NCCc3ccccc3)cnc21  inhibition of aggregation      7.3
 3  Cc1ccc(S(=O)(=O)N(CC(=O)N2CCC(C(N)=O)CC2)c2cccc(C(F)(F)F)c2)cc1  inhibition of aggregation     -0.2
 4      CC(=O)Nc1cccc(-c2nnc(-c3ccccc3)o2)c1  inhibition of aggregation      4.1
 5  c1ccc2c(-c3nc(C4CCCCC4)no3)cc(-c3ccncc3)nc2c1  inhibition of aggregation     17.4
 6              CCOc1ccccc1Nc1nc2ccccc2[nH]1  inhibition of aggregation      5.9
 7          C=CCNC(=O)CNS(=O)(=O)c1ccc(F)cc1  inhibition of aggregation     11.8
 8  Cc1ccccc1N1CC(c2nc3ccccc3[nH]2)CC1=O (centres undefined)  inhibition of aggregation     -1.2
 9               OCC#CCSc1nnc(-c2ccccc2Br)o1  inhibition of aggregation     -3.5
10    Cc1nc(NCCNC(=O)c2ccco2)c2c(C)c(C)sc2n1  inhibition of aggregation     -8.7
11  CCn1c(SCC(=O)N2CCCc3ccccc32)nnc1-c1cccs1  inhibition of aggregation      4.3
12      C=C(CC)C(=O)c1ccc(OCC(=O)O)c(Cl)c1Cl  inhibition of aggregation     19.4
13      Cc1nc(SCC(=O)c2c[nH]c3ccccc23)n[nH]1  inhibition of aggregation     -7.8
14          CNC(=O)c1c(O)c2cccc3c2n(c1=O)CC3  inhibition of aggregation     -3.8
15  O=C(Cn1nc(C(F)(F)F)c2c1CCCC2)NCCN1CCOCC1  inhibition of aggregation    -26.7
16  COC(=O)c1cc(NC(=O)C2COc3ccccc3O2)cc(C(=O)OC)c1 (centres undefined)  inhibition of aggregation     16.1
17       CCCOc1nc(N)c(C#N)c(-c2ccccc2F)c1C#N  inhibition of aggregation     10.7
18              O=C(NCc1ccco1)c1cc2c(s1)CSC2  inhibition of aggregation      3.2
19                   Cc1ccccc1-c1noc(N)c1C#N  inhibition of aggregation     -0.5
20  CCCCC(c1nnnn1CS(=O)(=O)c1ccc(C)cc1)N1CCN(c2ccccc2)CC1 (centres undefined)  inhibition of aggregation    -10.3
21  COCCn1cc(C(=O)NCCCN2CCC(C)CC2)c2c3ccccc3n(C)c2c1=O  inhibition of aggregation     -2.6
22            O=C(c1cnsn1)N1CCN(c2ccccn2)CC1  inhibition of aggregation        4
23                CCc1cc2c(NCCC(=O)O)ncnc2s1  inhibition of aggregation      4.4
24  O=C(Cn1ccc2ccccc2c1=O)NCCC(=O)NC1CCN(Cc2ccccc2)CC1  inhibition of aggregation      2.9

---

Assay: TLR3 IRF3 reporter activation blockers – cell-based, poly I:C stimulus, luciferase, 10K MLSCN set, primary screen (AID 602277)
Conditions: HEK293-TLR3 RL24 IRF3 luciferase reporter, at 10 µM, active compounds read high
recorded endpoint: inhibition (%)

> print(dat)
                                    molecule  units.of.measure  reading
 1  Cc1cccc(NC(=O)c2cc3n(n2)C(C(F)(F)F)CC(c2ccc4c(c2)OCO4)N3)c1 (stereo unspecified)                 %     25.4
 2  CN1CCCC(OC(=O)COc2ccc(Br)cc2)C1 (stereo unspecified)                 %    -1.12
 3  Cc1ccc2nc(CSc3nnc(-c4ccco4)n3-c3ccccc3)cc(=O)n2c1                 %      -20
 4      Clc1ccc(Cn2c(CN3CCCC3)nc3ccccc32)cc1                 %     28.2
 5  Cn1c(=O)c2c(nc(N3CCCCC3)n2CCSc2nc3ccccc3o2)n(C)c1=O                 %    -11.3
 6  O=C1CCCc2c1cc(C(=O)NCc1ccco1)c(=O)n2-c1ccc(Cl)cc1                 %     3.62
 7  CCc1ncc(C(O)c2cccc(OC)c2OC)n1C (stereo unspecified)                 %       24
 8       O=C(CCn1nc(-c2ccccc2)ccc1=O)N1CCCC1                 %     2.22
 9  CC(C)NC(=O)CSc1nnc(-c2ccc(C(C)(C)C)cc2)n1C                 %     1.25
10  CSc1nnc2n(CCc3ccccc3)c(=O)c3c4c(sc3n12)CCCC4                 %     -1.7
11  COc1ccccc1NC(=O)N1CCCC1C(=O)NC1CCCCC1 (stereo unspecified)                 %     11.1

---

Biological target: Voltage-gated potassium channel subunit beta-2 (Rattus norvegicus) (UniProt P62483)
Sequence (P62483 whole entry, looked up): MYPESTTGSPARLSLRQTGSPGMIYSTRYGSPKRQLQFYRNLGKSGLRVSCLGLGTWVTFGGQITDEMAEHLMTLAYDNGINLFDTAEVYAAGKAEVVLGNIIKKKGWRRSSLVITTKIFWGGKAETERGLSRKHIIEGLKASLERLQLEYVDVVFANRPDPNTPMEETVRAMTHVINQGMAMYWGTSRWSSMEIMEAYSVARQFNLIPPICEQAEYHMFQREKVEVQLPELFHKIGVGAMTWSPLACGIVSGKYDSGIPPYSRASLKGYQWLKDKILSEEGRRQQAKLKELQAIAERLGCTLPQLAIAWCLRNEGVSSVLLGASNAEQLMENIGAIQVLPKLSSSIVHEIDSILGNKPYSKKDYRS
Test: inhibitors of rat Kvbeta2 reductase activity – biochemical, NADPH fluorescence, primary screen (AID 622);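 note: slope of raw intensity against log time taken from 70 to 1610 s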
Conditions: recombinant KvBeta, 4-cyanobenzaldehyde reduction, at 10 µM, active compounds read high
fluorescence slope reference
recorded endpoint: fluorescence slope

> print(dat)
                                    molecule  reading
 1    COc1ccc(-c2nn3c(-c4ccncc4)nnc3s2)cc1OC    -0.42
 2  CCOC(=O)N1CCN(c2cc(=O)n(-c3ccc(OCC)cc3)c(=O)[nH]2)CC1   -0.431
 3    c1ccc2[nH]c(CSc3nnc(-c4ccncc4)o3)nc2c1   -0.497
 4  CCOC(=O)N1CCN(S(=O)(=O)c2cc(Cl)c(OC)cc2Cl)CC1   -0.509
 5             Cc1c(C(=O)O)sc(=S)n1-c1ccccc1   -0.372
 6  NC(=O)C1(N2CCCCC2)CCN(C2CC(=O)N(Cc3cccs3)C2=O)CC1 (centres undefined)   -0.458
 7  CCC(C)n1[nH]c(=O)c2c(C)cc(C)nc21 (centres undefined)   -0.565
 8  CCC(C)(NC(=O)c1ccc(=O)[nH]c1)C(=O)NC1CCCC1 (centres undefined)   -0.551
 9  OCc1nc2ccccc2n1CC(O)Cn1ccc2ccccc21 (centres undefined)   -0.577
10  Cc1ccc(S(=O)(=O)N2CCCC2C(=O)OCc2ccco2)cc1 (centres undefined)   -0.499
11  CC1=C(C#N)C(c2ccc3ncccc3c2)C(C#N)=C(C)N1    -0.44
12                   CCCc1cc(=O)n2[nH]cnc2n1   -0.285
13         CN(C)Cc1c(O)ccc2oc(Cc3ccccc3)cc12   -0.533
14  CC(C)(C)Nc1nc(OCC(F)(F)F)nc(OCC(F)(F)F)n1   -0.424
15  COc1ccc(OC)c(N(CC(=O)N2CCN(c3cc(Cl)ccc3C)CC2)S(C)(=O)=O)c1   -0.572
16  Cc1cccc2cc(C(c3nnnn3C(C)(C)C)N3CCN(C(=O)c4ccco4)CC3)c(=O)[nH]c12 (centres undefined)   -0.439
17  CN(CC(=O)N1CCN(C2CCCCC2)CC1)S(=O)(=O)c1cccc2nsnc12   -0.379
18  O=C1CSC(c2cccc(F)c2)N1c1ccccc1F (centres undefined)   -0.614
19  N#CC(C(=O)C1CCCCC1)c1nc2ccccc2[nH]1 (centres undefined)     -0.6
20        CCCn1cc(SCC(=O)NCc2ccco2)c2ccccc21   -0.521
21  COCC(=O)Nc1sc2c(c1C(=O)OC)C(C(=O)OC)CC2 (centres undefined)   -0.481
22      Cn1cc(CC(=O)Nc2cccc(C#N)c2)c2ccccc21    -0.47
23            O=C1C=C(NCc2ccco2)C2(CCCCC2)O1   -0.569
24            O=c1cc(-c2ccco2)oc2ccc(Cl)cc12   -0.568
